- assayNotes: Inhibition of recombinant wild type full length His-tagged HCV genotype 1b NS3 (1027 to 1657 residues)/4A (1658 to 1711 residues) protease expressed in Escherichia coli rosetta (DE3) cells using Ac-DE-Dap(QXL520)-EE-Abu-Psi-[COO]AS-C(5-FAMsp)-NH2 as substrate preincubated up to 10 mins followed by substrate addition and measured for 10 mins by fluorescence-based microplate reader analysis
- Parameters: species or system Hepatitis C virus subtype 1b
pIC50: −log10 of the molar value.
Below: a set of entries, each annotated with reported pIC50.

Study these solved cases before continuing.
INPUT: Assign pIC50 to the following record: `Cc1ccc(S(=O)(=O)Nc2ccccc2C(=O)Nc2nc3c(C)cc(C)cc3s2)cc1`
OUTPUT: 5.30 to 5.70

INPUT: Assign pIC50 to the following record: `CSc1cccc(NC(=O)Cc2csc(NS(=O)(=O)c3ccccc3)n2)c1`
OUTPUT: 5.00 to 5.30

INPUT: Assign pIC50 to the following record: `Cc1ccc(S(=O)(=O)Nc2ccccc2C(=O)Nc2nc3c(Br)cccc3s2)cc1`
OUTPUT: 4.00 to 5.00

INPUT: Assign pIC50 to the following record: `Cc1ccc(S(=O)(=O)Nc2ccccc2C(=O)Nc2nc3c(Cl)ccc(Cl)c3s2)cc1`
OUTPUT: 5.80

INPUT: Assign pIC50 to the following record: `CSc1cccc2sc(NC(=O)c3ccccc3NS(=O)(=O)c3ccc(C)cc3)nc12`
OUTPUT: 4.00 to 5.00

---
INPUT: Assign pIC50 to the following record: `Cc1ccc(S(=O)(=O)Nc2ccccc2C(=O)Nc2nc3ccc4sc(C)nc4c3s2)cc1`
OUTPUT: 5.30 to 5.70

INPUT: Assign pIC50 to the following record: `Cc1ccc(S(=O)(=O)Nc2ccccc2C(=O)Nc2nc3c(C)ccc(Cl)c3s2)cc1`
OUTPUT: 5.00 to 5.30

INPUT: Assign pIC50 to the following record: `Cc1c(Cl)cccc1NC(=O)Cc1csc(NS(=O)(=O)c2ccccc2)n1`
OUTPUT: 5.00 to 5.30

INPUT: Assign pIC50 to the following record: `Cc1ccc(S(=O)(=O)Nc2ccccc2C(=O)Nc2nc3c(cc4c5c(cccc53)CC4)s2)cc1`
OUTPUT: 5.30 to 5.70

INPUT: Assign pIC50 to the following record: `Cc1ccc(S(=O)(=O)Nc2ccccc2C(=O)Nc2nc(-c3cc(Cl)ccc3Cl)cs2)cc1`
OUTPUT: > 5.70

INPUT: Assign pIC50 to the following record: `Cc1ccc(S(=O)(=O)Nc2ccccc2C(=O)Nc2nc3c(ccc4ccccc43)s2)cc1`
OUTPUT: 5.00 to 5.30

INPUT: Assign pIC50 to the following record: `Cc1ccc(S(=O)(=O)Nc2ccccc2C(=O)Nc2nc3ccc4ccccc4c3s2)cc1`
OUTPUT: 5.30 to 5.70

* * *

- Test system: Hepatitis C virus serine protease, NS3/NS4A (Hepatitis C virus), D2K2A8+A3EZI9 [R155K]
- assayNotes: Inhibition of recombinant full length His-tagged HCV genotype 1b NS3/4A (1027 to 1657 residues) protease R155K (NS3) mutant expressed in Escherichia coli rosetta (DE3) cells using Ac-DE-Dap(QXL520)-EE-Abu-Psi-[COO]AS-C(5-FAMsp)-NH2 as substrate preincubated up to 10 mins followed by substrate addition and measured for 10 mins by fluorescence-based microplate reader analysis
- conditionParameters: Hepatitis C virus subtype 1b
The source made the active and inactive calls. The rule behind the calls is not given here.
Use one of these outcomes when replying: T for active, F for inactive

INPUT: Which outcome was entered for the compound `Cc1ccc(S(=O)(=O)Nc2ccccc2C(=O)Nc2nc(-c3cc(Cl)ccc3Cl)cs2)cc1` in this test?
OUTPUT: F

INPUT: Which outcome was entered for the compound `Cc1ccc(S(=O)(=O)Nc2ccccc2C(=O)Nc2nc3c(Cl)ccc(Cl)c3s2)cc1` in this test?
OUTPUT: T

INPUT: Which outcome was entered for the compound `Cc1ccc(S(=O)(=O)Nc2ccccc2C(=O)Nc2nc3c(cc4c5c(cccc53)CC4)s2)cc1` in this test?
OUTPUT: F

Alright, here's another compound for you.
INPUT: Which outcome was entered for the compound `Cc1ccc(S(=O)(=O)Nc2ccccc2C(=O)Nc2nc3c(C)ccc(Cl)c3s2)cc1` in this test?
OUTPUT: F
